- Target Of Assay: T1, HLA-A*02:01 (human)
- T1 construct: recombinant MHC class I molecule incubated with the synthetic peptide (REVEAL, ProImmune)
- Test Method Notes: REVEAL MHC-peptide binding assay, recombinant HLA
A collection of binders and their measured In Vitro Score
Readout Name: In Vitro Score

FWVKRGSKK (synthetic 9-mer variant; the entry already carries the change)    1.9 % of positive control peptide
FIIFWVLRG (synthetic 9-mer variant; the entry already carries the change)    7.2 % of positive control peptide
FWVARGRKK (synthetic 9-mer variant; the entry already carries the change)    13.5 % of positive control peptide
FIIFWVQRG (synthetic 9-mer variant; the entry already carries the change)    16.8 % of positive control peptide
